Numbers sourced from ChEMBL document CHEMBL1139871.

Species: Homo sapiens
EXPERIMENT_SUMMARY: Solubility in human plasma
ASSAY_METRIC: solubility
Give the value; after it, write the unit.

Tell me the measured solubility of NC(N)=Nc1nccc2c(Cl)cc(-c3cccc(C(=O)O)c3)cc12 , please.
60 µM

* * *

TARGET: Urokinase-type plasminogen activator (Homo sapiens, UniProt P00749)
pKi: −log10 of the molar value.
Decision: pKi compared against 8; not below it gives T, below it gives F.

SMILES_STR | QUALITATIVE_LABEL
C[C@@H](NS(=O)(=O)c1ccc2c(Cl)cnc(N=C(N)N)c2c1)C(=O)O | F
NC(N)=Nc1ncc(Cl)c2ccc(S(=O)(=O)N3CCC[C@@H]3CO)cc12 | F
NC(N)=Nc1ncc(Cl)c2ccc(S(=O)(=O)N3CCC[C@H]3C(=O)O)cc12 | F

Please tell me: is the compound NC(N)=Nc1ncc(Cl)c2ccc(S(=O)(=O)NC3(C(=O)O)CCCC3)cc12 at or over 8 in terms of pKi?
T

Does the reported pKi for CN1CCN(C(=O)C2(NS(=O)(=O)c3ccc4c(Cl)cnc(N=C(N)N)c4c3)CCCC2)CC1 fall at or above the 8 mark?
T

Does the compound CC(C)[C@@H](NS(=O)(=O)c1ccc2c(Cl)cnc(N=C(N)N)c2c1)C(=O)O have recorded pKi that is 8 or more?
F

Kindly determine if pKi recorded for CC(C)(C)[C@@H](NS(=O)(=O)c1ccc2c(Cl)cnc(N=C(N)N)c2c1)C(=O)O is above or exactly 8.
F

Please indicate if the recorded pKi for NC(N)=Nc1ncc(Cl)c2ccc(S(=O)(=O)NC3(C(=O)N4CCOCC4)CCCC3)cc12 meets or exceeds 8.
T

Can NC(N)=Nc1ncc(Cl)c2ccc(S(=O)(=O)N(CC(=O)O)CC3CCCC3)cc12 be said to have pKi at or above 8?
F
